Measured inhibition at 10 µM, listed per entry for reference.
target: BTK (Homo sapiens, UniProt Q06187); assay: biochemical; conditions: read-out: BTK inhibition (%), 0.75 uM BTK, […] probe 3l, 15 min preincubation
Sequence (Q06187 402-655 limits assumed): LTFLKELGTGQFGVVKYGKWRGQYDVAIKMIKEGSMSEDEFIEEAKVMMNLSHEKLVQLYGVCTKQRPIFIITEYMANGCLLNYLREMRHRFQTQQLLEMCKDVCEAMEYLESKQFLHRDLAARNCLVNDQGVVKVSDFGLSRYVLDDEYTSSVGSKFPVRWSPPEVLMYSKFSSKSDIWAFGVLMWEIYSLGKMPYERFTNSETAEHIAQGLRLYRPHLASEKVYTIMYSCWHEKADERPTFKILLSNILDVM
Output spec: scalar in %, unitless text.

Answered examples (3):
[
  {
    "COMPOUND": "CNCCN(C)Cc1cn[nH]c1-c1ccc(OC2CC(OCCC3CCOCC3)C2)cc1 (centres unmarked)",
    "TARGET_UNDER_TEST": "BTK (Homo sapiens, UniProt Q06187)",
    "ASSAY_METRIC": "inhibition at 10 µM",
    "RECORDED_RESULT": 11.6
  },
  {
    "COMPOUND": "C[C@@H]1O[C@@H](O[C@H]2[C@H](O[C@H]3CC[C@@]4(C)[C@@H](CC[C@]5(C)[C@@H]4CC=C4[C@@H]6CC(C)(C)CC[C@]6(C(=O)O[C@@H]6O[C@H](CO[C@@H]7O[C@H](CO)[C@@H](O)[C@H](O)[C@H]7O)[C@@H](O)[C@H](O)[C@H]6O)CC[C@]45C)[C@]3(C)CO)OC[C@H](O)[C@@H]2O)[C@H](O)[C@H](O)[C@H]1O",
    "TARGET_UNDER_TEST": "BTK (Homo sapiens, UniProt Q06187)",
    "ASSAY_METRIC": "inhibition at 10 µM",
    "RECORDED_RESULT": -25.5
  },
  {
    "COMPOUND": "CC(C)(C)c1cc(O)c(C(C)(C)C)cc1O",
    "TARGET_UNDER_TEST": "BTK (Homo sapiens, UniProt Q06187)",
    "ASSAY_METRIC": "inhibition at 10 µM",
    "RECORDED_RESULT": 26.5
  }
]

# value lookup — system BTK (Homo sapiens, UniProt Q06187), readout inhibition at 10 µM, item `CC(C)(C)c1cc(C=C(C#N)C#N)cc(Br)c1O`
57.2

* * *

biological target: BTK (Homo sapiens); assay: biochemical; details: read-out: BTK inhibition (%), 0.75 uM BTK, […] probe 3l, 15 min preincubation
ASSAY_METRIC: inhibition at 10 µM (%)
Output spec: scalar in %, unitless text.

Use these answered entries as a reference point.
[
  {
    "COMPOUND_STRUCTURE_STRING": "CC1(C)OC[C@@H](COC(=O)CCc2ccc(OC[C@@H](O)CNCCNC(=O)N3CCOCC3)cc2)O1",
    "RECORDED_RESULT": -3.1
  },
  {
    "COMPOUND_STRUCTURE_STRING": "Nc1nc(NCCc2ccc(O)cc2)nc2nc(-c3ccco3)nn12",
    "RECORDED_RESULT": -4.6
  },
  {
    "COMPOUND_STRUCTURE_STRING": "CCS(=O)(=O)CCn1c([N+](=O)[O-])cnc1C",
    "RECORDED_RESULT": -4.7
  },
  {
    "COMPOUND_STRUCTURE_STRING": "CCCNC(=O)[C@H]1O[C@@H]1C(=O)N[C@H](C(=O)N1CCC[C@H]1C(=O)OC)[C@@H](C)CC",
    "RECORDED_RESULT": -31.7
  },
  {
    "COMPOUND_STRUCTURE_STRING": "CC1(C)CC[C@]2(C(=O)O)CC[C@]3(CO)C(=CC[C@@H]4[C@@]5(C)C[C@H](O)[C@H](O[C@@H]6O[C@H](CO)[C@@H](O)[C@H](O)[C@H]6O)[C@@](C)(C(=O)O)[C@@H]5CC[C@]43C)[C@@H]2C1",
    "RECORDED_RESULT": 11.6
  },
  {
    "COMPOUND_STRUCTURE_STRING": "C[C@H]1[C@H](C)CC[C@]2(C(=O)O[C@@H]3O[C@H](CO[C@@H]4O[C@H](CO)[C@@H](O[C@@H]5O[C@@H](C)[C@H](O)[C@@H](O)[C@H]5O)[C@H](O)[C@H]4O)[C@@H](O)[C@H](O)[C@H]3O)CC[C@]3(C)C(=CC[C@@H]4[C@@]5(C)C[C@@H](O)[C@H](O)[C@@](C)(CO)[C@@H]5[C@H](O)C[C@]43C)[C@H]12",
    "RECORDED_RESULT": 10.1
  }
]

Given `CCC(=O)O[C@]1(C(=O)CCl)[C@@H](C)C[C@H]2[C@@H]3CCC4=CC(=O)C=C[C@]4(C)[C@@]3(F)[C@@H](O)C[C@@]21C` , state its recorded inhibition at 10 µM.
3.4
